Data origin: patent US11458138B2

- targetEntity: LATS1 (Homo sapiens (Human), UniProt O95835)
- Sequence (O95835 whole entry, looked up): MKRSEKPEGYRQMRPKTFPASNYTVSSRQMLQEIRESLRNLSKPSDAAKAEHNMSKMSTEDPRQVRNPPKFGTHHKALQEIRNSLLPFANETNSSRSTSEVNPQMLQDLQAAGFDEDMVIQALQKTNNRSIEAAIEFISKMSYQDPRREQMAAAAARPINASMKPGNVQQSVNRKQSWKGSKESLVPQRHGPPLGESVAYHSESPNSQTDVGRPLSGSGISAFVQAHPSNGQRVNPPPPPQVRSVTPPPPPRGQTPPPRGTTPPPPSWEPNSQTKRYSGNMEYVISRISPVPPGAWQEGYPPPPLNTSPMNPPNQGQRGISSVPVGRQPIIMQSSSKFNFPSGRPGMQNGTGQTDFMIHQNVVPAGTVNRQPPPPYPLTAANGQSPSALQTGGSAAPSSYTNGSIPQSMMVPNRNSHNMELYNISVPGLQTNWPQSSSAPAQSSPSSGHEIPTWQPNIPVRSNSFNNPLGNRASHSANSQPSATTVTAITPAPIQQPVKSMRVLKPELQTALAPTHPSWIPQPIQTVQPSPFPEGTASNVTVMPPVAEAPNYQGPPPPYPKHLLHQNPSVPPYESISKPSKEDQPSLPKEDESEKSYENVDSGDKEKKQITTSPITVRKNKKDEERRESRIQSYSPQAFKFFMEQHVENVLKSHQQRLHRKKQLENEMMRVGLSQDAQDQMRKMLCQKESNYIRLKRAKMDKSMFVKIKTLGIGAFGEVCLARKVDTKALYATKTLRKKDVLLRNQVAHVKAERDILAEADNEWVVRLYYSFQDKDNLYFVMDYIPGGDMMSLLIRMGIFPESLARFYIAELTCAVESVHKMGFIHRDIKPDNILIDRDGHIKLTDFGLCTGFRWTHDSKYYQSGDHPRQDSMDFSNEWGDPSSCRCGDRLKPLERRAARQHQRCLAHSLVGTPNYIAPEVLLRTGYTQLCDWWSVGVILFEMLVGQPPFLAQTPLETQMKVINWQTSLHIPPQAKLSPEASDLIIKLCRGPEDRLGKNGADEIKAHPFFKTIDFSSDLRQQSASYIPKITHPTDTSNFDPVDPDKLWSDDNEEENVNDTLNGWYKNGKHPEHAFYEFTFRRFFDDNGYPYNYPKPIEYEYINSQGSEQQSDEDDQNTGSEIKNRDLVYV
- Sequence (Q7L9L4 whole entry partner, looked up): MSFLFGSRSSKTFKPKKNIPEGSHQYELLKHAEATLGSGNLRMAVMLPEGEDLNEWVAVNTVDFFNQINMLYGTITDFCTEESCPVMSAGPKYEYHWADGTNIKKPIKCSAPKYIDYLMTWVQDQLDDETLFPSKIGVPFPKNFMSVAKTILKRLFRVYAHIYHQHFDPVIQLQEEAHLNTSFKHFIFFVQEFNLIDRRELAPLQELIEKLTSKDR
- assayDetails: LATS1 biochemical assay (Table 1A, Compound Examples 1-290; method in the earlier part)
Returns: string. Value is 1 if measured IC50 is below 6 nM, and 0 if it is greater than or equal to it.

INSERT INTO results (compound, category) VALUES
  ('C[C@@H]1CCC[C@@H]1Nc1nc(-c2ccncc2)nc2cnccc12 (single isomer, unassigned) [Example 17b]', 1),
  ('CC(C)(C)Nc1cc(-c2ccncc2Cl)nc2cnccc12', 0),
  ('Cn1cncc1-c1nc(NC2(C)CC2)c2ccncc2n1', 0),
  ('CC(Nc1nc(-c2ccnn2C)nc2cnccc12)c1ccncc1 (stereo not drawn)', 0),
  ('CN(C)c1nc(-c2ccncc2)nc2cnccc12', 0),
  ('c1cc(-c2nc(NC3CCCC3)c3ccncc3n2)ccn1', 1),
  ('CCC(C)(C)Nc1nc(-c2ccncc2)nc2cnccc12', 1),
  ('C[C@]1(Nc2nc(-c3ccncc3)nc3cnccc23)C[C@@H](O)C1', 1);
